Listing of recorded viability, T/C by entry.
Test system: 349418-098-R-PDC complex spheroid viability
Test Summary: Anticancer human tumor 349418-098-R-PDC patient-derived lung adenocarcinoma cell line growth inhibition [RAS]
Condition: second compound 0.1 µM; first compound 1 µM; stronger effect = lower value
Your answer should be a plain number; it is taken to be in %.

Here is how some compounds turned out for viability, T/C.
# Compound, viability, T/C [%]
data = [
    ("CC(C)NCC(C(=O)N1CCN(c2ncnc3c2C(C)CC3O)CC1)c1ccc(Cl)cc1 (centres undefined) + C=CC(=O)N1CCN(c2nc(OCC3CCCN3C)nc3c(F)c(-c4nc(N)cc(C)c4C(F)(F)F)c(Cl)cc23)C(C)C1", 31.1),
    ("CCC(CC)c1cc(NC2CCC(N)C2)n2nccc2n1 (centres undefined) + C=CC(=O)N1CCN(c2nc(OCC3CCCN3C)nc3c(F)c(-c4nc(N)cc(C)c4C(F)(F)F)c(Cl)cc23)C(C)C1", 45.8),
    ("Nc1ccn(C2OC(CO)C(O)C2(F)F)c(=O)n1 (centres undefined) + C#Cc1c(F)ccc2cc(O)cc(-c3ncc4c(N5CC6CCC(C5)N6)nc(OCC56CCCN5CC(F)C6)nc4c3F)c12", 4.87),
]

API: the following record is the query input.
Query string: What measured viability, T/C goes with CC1(O)CCCC1n1c(=O)c(C(F)F)cc2cnc(NC3CCN(S(C)(=O)=O)CC3)nc21 (centres undefined) + C#Cc1c(F)ccc2cc(O)cc(-c3ncc4c(N5CC6CCC(C5)N6)nc(OCC56CCCN5CC(F)C6)nc4c3F)c12 ?
Result string: 16.2

###

Listing of recorded IC50 by entry.
System: 349418-098-R-PDC complex spheroid viability
Test Summary: Anticancer human tumor 349418-098-R-PDC cell line growth inhibition [RAS];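 also: spheroids exposed to compound for seven days before viability readout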
Condition: curve of first compound; second compound 0.1 µM

Here is how some molecules turned out for IC50.
# Molecule, Study Target, IC50
measured = [
    ("C=CC(=O)N1CCN(c2nc(OCC3CCCN3C)nc3c(F)c(-c4nc(N)cc(C)c4C(F)(F)F)c(Cl)cc23)C(C)C1 (stereo not drawn) + C#Cc1c(F)ccc2cc(O)cc(-c3ncc4c(N5CC6CCC(C5)N6)nc(OCC56CCCN5CC(F)C6)nc4c3F)c12", "349418-098-R-PDC complex spheroid viability", "> 1 µM"),
    ("Cc1nc(N2CCC3(CC2)COC(C)C3N)c(CO)nc1Sc1ccnc(N)c1Cl (stereo not drawn) + C=CC(=O)N1CCN(c2nc(OCC3CCCN3C)nc3c(F)c(-c4nc(N)cc(C)c4C(F)(F)F)c(Cl)cc23)C(C)C1", "349418-098-R-PDC complex spheroid viability", "> 10 µM"),
]

API: the following record is the query input.
Query string: What measured IC50 goes with O=C(c1ccc(F)c(F)c1Nc1ccc(I)cc1F)N1CC(O)([C@@H]2CCCCN2)C1 + C#Cc1c(F)ccc2cc(O)cc(-c3ncc4c(N5CC6CCC(C5)N6)nc(OCC56CCCN5CC(F)C6)nc4c3F)c12 ?
Result string: < 0.00316 µM

###

Tested on: 349418-098-R-PDC complex spheroid viability
Test Summary: Anticancer human tumor 349418-098-R-PDC cell line growth inhibition [RAS];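 also: spheroids exposed to compound for seven days before viability readout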
Condition: second compound 0.00949 µM; first compound 0.1 µM; stronger effect = lower value
Listing of recorded viability, T/C by entry.
Your answer should be a plain number; it is taken to be in %.

# Compound, viability, T/C, %
measured = [
    ("NC1c2ccccc2OC12CCN(c1cnc3c(N4CCCc5ncccc54)n[nH]c3n1)CC2 (stereo unspecified) + CCn1c(-c2cc(N3CCN(C)CC3)cnc2C(C)OC)c2c3cc(ccc31)-c1csc(n1)CC(NC(=O)C1CC1C)C(=O)N1CCCC(N1)C(=O)OCC(C)(C)C2", 102),
    ("CCC(CC)c1cc(NC2CCC(N)C2)n2nccc2n1 (stereo unspecified) + CCn1c(-c2cccnc2C(C)OC)c2c3cc(ccc31)N1CCOC(CC(NC(=O)C(C(C)C)N(C)C(=O)C3(F)CCN(C(=O)C#CC(C)(C)N(C)C)CC3)C(=O)N3CCCC(N3)C(=O)OCC(C)(C)C2)C1", 105),
    ("CC(Nc1ccc2c(c1)OCCn1cc(N3C(=O)OCC3C(F)F)nc1-2)C(N)=O (stereo unspecified) + CCn1c(-c2cccnc2C(C)OC)c2c3cc(ccc31)N1CCOC(CC(NC(=O)C(C(C)C)N(C)C(=O)C3(F)CCN(C(=O)C#CC(C)(C)N(C)C)CC3)C(=O)N3CCCC(N3)C(=O)OCC(C)(C)C2)C1", 43.6),
    ("Cc1nc(N2CCC3(CC2)COC(C)C3N)c(CO)nc1Sc1ccnc(N)c1Cl (stereo unspecified) + CCn1c(-c2cccnc2C(C)OC)c2c3cc(ccc31)N1CCOC(CC(NC(=O)C(C(C)C)N(C)C(=O)C3(F)CCN(C(=O)C#CC(C)(C)N(C)C)CC3)C(=O)N3CCCC(N3)C(=O)OCC(C)(C)C2)C1", 106),
    ("Cc1nc(N2CCC3(CC2)COC(C)C3N)c(CO)nc1Sc1ccnc(N)c1Cl (stereo unspecified) + CCn1c(-c2cc(N3CCN(C)CC3)cnc2C(C)OC)c2c3cc(ccc31)-c1csc(n1)CC(NC(=O)C1CC1C)C(=O)N1CCCC(N1)C(=O)OCC(C)(C)C2", 89.2),
]

Query string: What measured viability, T/C goes with CC(C)n1nc(-c2ccc3oc(N)nc3c2)c2c(N)ncnc21 + CCn1c(-c2cccnc2C(C)OC)c2c3cc(ccc31)N1CCOC(CC(NC(=O)C(C(C)C)N(C)C(=O)C3(F)CCN(C(=O)C#CC(C)(C)N(C)C)CC3)C(=O)N3CCCC(N3)C(=O)OCC(C)(C)C2)C1 ?
Result string: 5.25

Query string: What measured viability, T/C goes with CC(C)n1nc(-c2ccc3oc(N)nc3c2)c2c(N)ncnc21 + CCn1c(-c2cc(N3CCN(C)CC3)cnc2C(C)OC)c2c3cc(ccc31)-c1csc(n1)CC(NC(=O)C1CC1C)C(=O)N1CCCC(N1)C(=O)OCC(C)(C)C2 ?
Result string: 5.27

Query string: What measured viability, T/C goes with CC(C)NCC(C(=O)N1CCN(c2ncnc3c2C(C)CC3O)CC1)c1ccc(Cl)cc1 (stereo unspecified) + CCn1c(-c2cccnc2C(C)OC)c2c3cc(ccc31)N1CCOC(CC(NC(=O)C(C(C)C)N(C)C(=O)C3(F)CCN(C(=O)C#CC(C)(C)N(C)C)CC3)C(=O)N3CCCC(N3)C(=O)OCC(C)(C)C2)C1 ?
Result string: 85.7

Query string: What measured viability, T/C goes with O=C(c1ccc(F)c(F)c1Nc1ccc(I)cc1F)N1CC(O)([C@@H]2CCCCN2)C1 + CCn1c(-c2cc(N3CCN(C)CC3)cnc2C(C)OC)c2c3cc(ccc31)-c1csc(n1)CC(NC(=O)C1CC1C)C(=O)N1CCCC(N1)C(=O)OCC(C)(C)C2 ?
Result string: 5.46

Query string: What measured viability, T/C goes with CC(C)NCC(C(=O)N1CCN(c2ncnc3c2C(C)CC3O)CC1)c1ccc(Cl)cc1 (stereo unspecified) + CCn1c(-c2cc(N3CCN(C)CC3)cnc2C(C)OC)c2c3cc(ccc31)-c1csc(n1)CC(NC(=O)C1CC1C)C(=O)N1CCCC(N1)C(=O)OCC(C)(C)C2 ?
Result string: 97.6

Query string: What measured viability, T/C goes with CC1(O)CCCC1n1c(=O)c(C(F)F)cc2cnc(NC3CCN(S(C)(=O)=O)CC3)nc21 (stereo unspecified) + CCn1c(-c2cccnc2C(C)OC)c2c3cc(ccc31)N1CCOC(CC(NC(=O)C(C(C)C)N(C)C(=O)C3(F)CCN(C(=O)C#CC(C)(C)N(C)C)CC3)C(=O)N3CCCC(N3)C(=O)OCC(C)(C)C2)C1 ?
Result string: 45.8
